- target-of-assay: Transient receptor potential cation channel subfamily V member 1 (Homo sapiens, UniProt Q8NER1)
- Sequence (Q8NER1 whole entry): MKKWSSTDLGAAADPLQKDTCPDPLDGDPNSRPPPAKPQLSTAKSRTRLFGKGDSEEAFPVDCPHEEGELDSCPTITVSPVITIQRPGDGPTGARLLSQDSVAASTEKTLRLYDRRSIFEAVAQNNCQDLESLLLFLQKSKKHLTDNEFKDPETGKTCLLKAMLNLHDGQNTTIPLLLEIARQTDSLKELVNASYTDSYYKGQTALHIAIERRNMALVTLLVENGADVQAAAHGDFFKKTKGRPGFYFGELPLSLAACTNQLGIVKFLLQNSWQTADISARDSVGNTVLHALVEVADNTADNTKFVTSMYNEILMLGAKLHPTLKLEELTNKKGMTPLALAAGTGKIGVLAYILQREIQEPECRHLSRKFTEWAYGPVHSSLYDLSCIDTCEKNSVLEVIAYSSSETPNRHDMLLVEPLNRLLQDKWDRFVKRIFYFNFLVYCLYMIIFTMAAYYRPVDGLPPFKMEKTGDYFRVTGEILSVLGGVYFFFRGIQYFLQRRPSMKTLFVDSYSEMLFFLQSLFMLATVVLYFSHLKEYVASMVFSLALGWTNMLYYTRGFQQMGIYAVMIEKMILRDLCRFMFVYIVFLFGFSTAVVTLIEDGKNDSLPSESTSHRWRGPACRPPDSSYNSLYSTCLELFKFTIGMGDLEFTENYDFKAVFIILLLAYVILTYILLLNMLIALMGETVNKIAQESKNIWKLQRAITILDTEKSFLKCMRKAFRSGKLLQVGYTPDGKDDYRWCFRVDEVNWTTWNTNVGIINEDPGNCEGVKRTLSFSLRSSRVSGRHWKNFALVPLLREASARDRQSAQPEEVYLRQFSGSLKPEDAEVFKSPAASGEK
- assay-summary: Antagonist activity at human TRPV1 expressed in CHO-K1 cells assessed as inhibition of capsaicin-induced Ca2+ response treated with compound 6 mins prior to capsaicin addition and measured after overnight incubation by FLIPR assay
experimental-endpoint: Ki (nM)
Express the result in nM but write the number alone.

Worked cases, answers included:
{"chemical-smiles": "Cn1ncc2c(NC(=O)NCc3cc(C(C)(C)C)nn3-c3ccc(Cl)cc3)cccc21", "experimental-endpoint": "Ki", "measured-value": 9.5}
{"chemical-smiles": "O=C(NCc1cc(C(F)(F)F)nn1-c1ccc(Cl)cc1)Nc1cccc2[nH]ncc12", "experimental-endpoint": "Ki", "measured-value": 2.5}
{"chemical-smiles": "Cn1ncc2cc(NC(=O)NCc3cc(C(F)(F)F)nn3-c3cccc(Cl)c3)ccc21", "experimental-endpoint": "Ki", "measured-value": 61}
{"chemical-smiles": "CC(C)(C)c1cc(CNC(=O)Nc2cccc3[nH]ncc23)n(-c2ccc(F)cc2)n1", "experimental-endpoint": "Ki", "measured-value": 2.2}
{"chemical-smiles": "Cn1ncc2c(NC(=O)NCc3cc(C(C)(C)C)nn3-c3cccc(Cl)c3)cccc21", "experimental-endpoint": "Ki", "measured-value": 0.4}
{"chemical-smiles": "CC(=O)n1ncc2c(NC(=O)NCc3cc(C(C)(C)C)nn3-c3cccc(Cl)c3)cccc21", "experimental-endpoint": "Ki", "measured-value": 29.5}
{"chemical-smiles": "Cn1ncc2c(NC(=O)NCc3cc(C(F)(F)F)nn3-c3cccc(F)c3)cccc21", "experimental-endpoint": "Ki", "measured-value": 7}
{"chemical-smiles": "O=C(NCc1cc(C(F)(F)F)nn1-c1ccc(F)c(Cl)c1)Nc1cccc2[nH]ncc12", "experimental-endpoint": "Ki", "measured-value": 0.6}

Now take the following compound into account.
Ask: # get_value(readout='Ki', item= `Cn1ncc2c(NC(=O)NCc3cc(C(F)(F)F)nn3-c3ccc(F)c(Cl)c3)cccc21` )
Reply: 1.9
